System: Rabbit Psoas myofibrils (skeletal myosin ATPase)
ASSAY_TEXT: Myofibril ATPase assay, rabbit psoas (skeletal) myofibrils
Type: biochemical
CONDITION_INFO: Y75 value (no ‡ mark); rabbit psoas myofibrils
Mark T only for Skeletal EC25 values smaller than 0.05 µM; exact matches and larger values are F.

- Cc1c(C(F)(F)C(=O)N[C@H](C)c2ncc(C#N)cn2)c(=O)[nH]c2ccc(F)cc12 (single isomer, unassigned): F

Determine whether this compound shows Skeletal EC25 lower than 0.05 µM (ties excluded): Cc1nc(C#N)ccc1[C@H](C)NC(=O)Cc1c(C)c2c(C)c(F)ccc2[nH]c1=O (single isomer, unassigned)
T

Dear reviewer, please state whether COc1ccc2[nH]c(=O)c(CC(=O)N[C@H](C)c3ncc(F)cc3F)cc2c1C (single isomer, unassigned) has Skeletal EC25 strictly beneath 0.05 µM.
F

###

MEASUREMENT_TARGET: Porcine ventricle myofibrils (ventricular myosin ATPase) (Sus scrofa)
Construct: Myofibrils from porcine cardiac muscle was isolated from the left ventricle of Yucatan minipigs; tissue Exemplar Genetics; host or cells: left ventricle of Yucatan minipigs, myofibrils prepared in house
ASSAY_TEXT: Myofibril ATPase assay, porcine ventricle myofibrils
Format: biochemical, porcine (Yucatan minipigs)
CONDITION_INFO: porcine ventricle myofibrils; Y75 value
Here the recorded Ventricular EC25 is given for each entry.
Unit µM implied. Number only.

• Cc1nccc2[nH]c(=O)c(CC(=O)N[C@@H]3c4c(F)cc(F)cc4OC3(C)C)c(C)c12 (single isomer, unassigned) [compound 190] = 45.62
• Cc1ccccc1[C@H](CO)NC(=O)Cc1c(C)c2c(C)nccc2[nH]c1=O (single isomer, unassigned) [compound 338] = 100.00
• Cc1nccc2[nH]c(=O)c(CC(=O)N[C@H](CO)c3ncc(C#N)cc3F)c(C)c12 (single isomer, unassigned) [compound 247] = 100.00
• C[C@H](NC(=O)Cc1cc2c(C3CC3)nccc2[nH]c1=O)c1ccc(F)cc1F [compound 432] = 80.53
• Cc1c(CC(=O)N[C@H](C)c2ncc(C#N)cc2F)c(=O)[nH]c2ccc(OC(F)(F)F)nc12 [compound 455] = 100.00

Specify measured Ventricular EC25 for Cc1c(CC(=O)N[C@H](C)c2ccc(C#N)cn2)c(=O)[nH]c2ccncc12 [compound 466] .
100.00

Retrieve Ventricular EC25 measured for Cc1c(CC(=O)N[C@H](CO)c2ccc(F)cc2F)c(=O)[nH]c2ccnc(OC3CC3)c12 [compound 199] and print it.
67.50

# return recorded Ventricular EC25 for input CCOc1nccc2[nH]c(=O)c([C@H](C)C(=O)N[C@@H](C)c3ccc(F)cc3F)c(C(F)(F)F)c12 (single isomer, unassigned) [compound 415]
12.58

###

System: Rabbit Psoas myofibrils (skeletal myosin ATPase)
ASSAY_TEXT: Myofibril ATPase assay, rabbit psoas (skeletal) myofibrils
Assay type: biochemical
CONDITION_INFO: rabbit psoas myofibrils; Y75 value
Rule for this label: TRUE means Skeletal EC25 is less than 40 nM; FALSE means Skeletal EC25 is at least 40 nM.

Example cases with answers are listed next.
• Cc1c(CC(=O)N[C@@H](CO)c2ncc(C#N)cc2F)c(=O)[nH]c2cnnc(C#N)c12 = FALSE
• Cc1nccc2[nH]c(=O)c(CC(=O)N[C@H]3c4c(F)cc(F)cc4OC3(C)C)c(C)c12 (single isomer, unassigned) = FALSE
• Cc1ccc2[nH]c(=O)c(CC(=O)N[C@@H](C)c3ccc(F)cc3F)c(C(F)(F)F)c2n1 = FALSE
• Cc1c(CC(=O)N[C@@H](C)c2ncc(C#N)cc2F)c(=O)[nH]c2ccnc(C#N)c12 (single isomer, unassigned) = TRUE
• Cc1nccc2[nH]c(=O)c(CC(=O)N[C@H](C)c3ccc(O)nc3)c(C)c12 (single isomer, unassigned) = FALSE

Please indicate whether the reported Skeletal EC25 of `C[C@H](NC(=O)Cc1cc2nc(Cl)ccc2[nH]c1=O)c1ccc(F)cc1F` is strictly below 40 nM.
FALSE

Field: below-cutoff. Rule: recorded Skeletal EC25 strictly less than 40 nM. Subject: Cc1c(CC(=O)N[C@@H](CO)c2ncc(C#N)cc2F)c(=O)[nH]c2ccnc(C#N)c12 (single isomer, unassigned)
TRUE

Bench note: check whether Cc1c([C@@H](C)C(=O)N[C@@H](C)c2ccc(F)cc2F)c(=O)[nH]c2ccnc(OC(F)(F)F)c12 (single isomer, unassigned) shows Skeletal EC25 below 40 nM
FALSE

Would you kindly verify if Skeletal EC25 of `Cc1c(CC(=O)N[C@H](C)c2ccc(C#N)cn2)c(=O)[nH]c2ccc(C(F)(F)F)nc12` is strictly less than 40 nM?
FALSE

Find out if reported Skeletal EC25 for Cc1c(CC(=O)N[C@@H](C)c2ncc(F)cc2F)c(=O)[nH]c2ccnc(C#N)c12 (single isomer, unassigned) is less than 40 nM
TRUE

###

Test system: Porcine atria myofibrils (atrial myosin ATPase)
ASSAY_TEXT: Myofibril ATPase assay, porcine atria myofibrils
Format: biochemical
CONDITION_INFO: Y75 value: concentration required to reduce myosin ATP-ase activity by 25%; Porcine Atria Prep pCa 25 GEOM_MEAN
This listing pairs molecules with measured Atrial EC25.
Give the quantity in µM, number only.

Here is how some molecules turned out for Atrial EC25.
• C[C@H](NC(=O)Cc1cc2c(F)c(F)ccc2[nH]c1=O)c1nc(C#N)cs1 (single isomer, unassigned) = 2.24
• CC(NC(=O)Cc1cc2cc(F)ccc2[nH]c1=O)c1cc(C#N)c(F)s1 (stereo not shown) = 1.60
• Cc1c(C(F)(F)C(=O)N[C@@H](C)c2nc(C#N)cs2)c(=O)[nH]c2ccc(F)cc12 (single isomer, unassigned) = 0.74

Turning now to a further molecule:
Output measured Atrial EC25 for this item: C[C@@H](NC(=O)Cc1cc2c(F)c(F)ccc2[nH]c1=O)c1nc(C#N)co1 (single isomer, unassigned)
0.74

###

MEASUREMENT_TARGET: Porcine ventricle myofibrils (ventricular myosin ATPase) (Sus scrofa, UniProt P79293)
Construct: Myofibrils from porcine cardiac muscle was isolated from the left ventricle of Yucatan minipigs; tissue Exemplar Genetics; host or cells: left ventricle of Yucatan minipigs, myofibrils prepared in house
Sequence (P79293 whole entry): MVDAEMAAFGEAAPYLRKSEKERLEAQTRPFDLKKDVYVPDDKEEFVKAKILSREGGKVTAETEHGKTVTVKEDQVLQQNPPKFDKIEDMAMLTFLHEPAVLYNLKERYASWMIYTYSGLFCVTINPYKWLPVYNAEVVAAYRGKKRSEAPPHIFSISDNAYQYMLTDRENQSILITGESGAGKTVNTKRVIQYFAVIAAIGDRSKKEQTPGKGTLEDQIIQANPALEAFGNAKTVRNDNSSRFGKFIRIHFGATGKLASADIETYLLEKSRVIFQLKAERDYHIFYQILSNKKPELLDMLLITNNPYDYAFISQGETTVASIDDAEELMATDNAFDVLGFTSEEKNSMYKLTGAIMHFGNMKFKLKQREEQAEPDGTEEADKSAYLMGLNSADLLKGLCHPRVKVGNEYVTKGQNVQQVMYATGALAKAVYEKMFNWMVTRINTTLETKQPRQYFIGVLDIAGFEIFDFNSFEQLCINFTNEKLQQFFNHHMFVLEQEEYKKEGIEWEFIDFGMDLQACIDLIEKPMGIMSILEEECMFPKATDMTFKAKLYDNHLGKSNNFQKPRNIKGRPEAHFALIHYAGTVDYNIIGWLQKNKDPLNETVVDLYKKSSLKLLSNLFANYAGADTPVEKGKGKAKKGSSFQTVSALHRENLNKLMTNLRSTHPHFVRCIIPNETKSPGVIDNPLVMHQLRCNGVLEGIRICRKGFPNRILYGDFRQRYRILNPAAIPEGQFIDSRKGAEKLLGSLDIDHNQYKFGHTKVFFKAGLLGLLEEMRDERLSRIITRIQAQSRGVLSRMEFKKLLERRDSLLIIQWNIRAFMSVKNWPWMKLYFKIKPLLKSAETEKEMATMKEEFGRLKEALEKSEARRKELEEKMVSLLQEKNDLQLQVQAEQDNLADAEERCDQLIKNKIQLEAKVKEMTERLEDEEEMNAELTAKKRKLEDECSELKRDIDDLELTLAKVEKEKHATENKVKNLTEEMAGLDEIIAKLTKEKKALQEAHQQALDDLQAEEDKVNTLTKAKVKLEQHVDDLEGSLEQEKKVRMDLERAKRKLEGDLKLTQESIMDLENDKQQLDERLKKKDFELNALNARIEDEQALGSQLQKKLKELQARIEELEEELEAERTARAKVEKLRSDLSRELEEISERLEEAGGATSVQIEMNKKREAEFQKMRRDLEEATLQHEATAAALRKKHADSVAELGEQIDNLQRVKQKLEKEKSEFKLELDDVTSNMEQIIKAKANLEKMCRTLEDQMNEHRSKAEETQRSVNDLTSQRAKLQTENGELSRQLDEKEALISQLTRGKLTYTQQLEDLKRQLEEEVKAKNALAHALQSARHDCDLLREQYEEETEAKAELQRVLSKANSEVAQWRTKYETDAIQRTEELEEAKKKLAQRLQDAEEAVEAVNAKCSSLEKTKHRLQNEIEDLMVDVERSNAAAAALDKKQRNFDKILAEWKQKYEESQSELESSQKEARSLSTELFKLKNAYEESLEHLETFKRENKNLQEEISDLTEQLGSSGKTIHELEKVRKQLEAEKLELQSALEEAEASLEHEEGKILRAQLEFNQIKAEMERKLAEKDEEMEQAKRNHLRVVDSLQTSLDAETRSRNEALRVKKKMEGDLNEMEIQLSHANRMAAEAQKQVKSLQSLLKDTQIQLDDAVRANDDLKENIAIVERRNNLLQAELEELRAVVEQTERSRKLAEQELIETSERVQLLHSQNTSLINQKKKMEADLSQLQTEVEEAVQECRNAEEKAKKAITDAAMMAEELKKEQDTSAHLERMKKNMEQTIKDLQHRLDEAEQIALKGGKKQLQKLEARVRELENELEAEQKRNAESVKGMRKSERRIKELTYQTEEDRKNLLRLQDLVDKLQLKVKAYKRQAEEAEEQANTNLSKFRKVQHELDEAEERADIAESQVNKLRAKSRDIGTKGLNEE
ASSAY_TEXT: Myofibril ATPase assay, porcine ventricle myofibrils
Assay type: biochemical, porcine (Yucatan minipigs)
CONDITION_INFO: Y75 value (no ‡ mark); porcine ventricle myofibrils
Given measured Ventricular EC25, output met if it is greater than or equal to 0.8 µM and not met if not.

Previously resolved entries follow.
- N#Cc1cnc2c(c1)OC[C@@H]2NC(=O)Cc1cc2c(F)c(F)ccc2[nH]c1=O (single isomer, unassigned): not met
- O=C(Cc1cc2c(F)c(F)ccc2[nH]c1=O)N[C@@H]1COc2ncccc21 (single isomer, unassigned): met
- C[C@H](NC(=O)C(F)(F)c1cc2c(C#N)c(F)ccc2[nH]c1=O)c1ncc(C#N)cc1F (single isomer, unassigned): not met
- Cc1c(C(F)(F)C(=O)N[C@H]2CCc3cc(C#N)cnc32)c(=O)[nH]c2ccc(F)cc12 (single isomer, unassigned): met
- Cc1c(CC(=O)N[C@H](C)c2ncc(C#N)cc2F)c(=O)[nH]c2ccc(F)c(C(F)(F)F)c12: not met

Please check the record `Cc1c(CC(=O)N[C@@H](C)c2ccc(F)cc2F)c(=O)[nH]c2ccc(O)c(C#N)c12` and state if its Ventricular EC25 is at or above 0.8 µM.
met

###

compounds and their reported Skeletal EC25
Test system: Rabbit Psoas myofibrils (skeletal myosin ATPase)
ASSAY_TEXT: Myofibril ATPase assay, rabbit psoas (skeletal) myofibrils
Type: biochemical
CONDITION_INFO: Y75 value (no ‡ mark); rabbit psoas myofibrils
Write down the numeric answer in nM and omit the unit.

Here's what some known entries look like.
* Cc1c(CC(=O)N[C@@H](CO)c2ccc(C#N)cc2F)c(=O)[nH]c2ccc(F)c(C3CC3)c12 [compound 72] | 20
* Cc1c(CC(=O)N[C@@H](C)c2ncc(C#N)cc2F)c(=O)[nH]c2cccc(F)c12 [compound 52] | 20
* C[C@H](NC(=O)C(F)(F)c1cc2c(F)c(F)ccc2[nH]c1=O)c1cc(C#N)ccn1 (single isomer, unassigned) [compound 2558] | 100000
* C[C@@H](NC(=O)Cc1c(C2CC2)c2cc(F)ccc2[nH]c1=O)c1ccc(C#N)cn1 [compound 55] | 1200
* Cc1c(CC(=O)N[C@H](C)c2cnc(C#N)nc2)c(=O)[nH]c2cc(F)c(F)cc12 (single isomer, unassigned) [compound 2074] | 4030

Give a short answer stating reported Skeletal EC25 for Cc1c(F)ccc2[nH]c(=O)c(C(F)(F)C(=O)N[C@@H](C)c3ncc(C#N)cn3)c(C)c12 (single isomer, unassigned) [compound 4832] .
170

Indicate its recorded Skeletal EC25; the compound in question is Cc1c(C(F)(F)C(=O)N[C@@H](C)c2cnc(C#N)cn2)c(=O)[nH]c2ccc(F)cc12 (single isomer, unassigned) [compound 4828]
240
